System: CP237
Test: qHTS profiling for inhibitors of Plasmodium falciparum proliferation (AID 504749); further: nearly all actives have a fitted effect of over 60% in size
Settings: P. falciparum in erythrocytes, SYBR Green DNA, 72 h; series mostly up to 28.7 µM
Description: NIH National Institute of Allergy and Infectious Diseases [NIAID] NIH Chemical Genomics Center [NCGC] […] Because mature erythrocytes lack DNA, only Plasmodium-derived DNA is detected. NCGC Assay Protocol Summary: The SYBR Green viability assay was adapted from a method described previously (Plouffe et al., 2008). […] The following morning, fluorescence intensity at 485(14) nm excitation and 535(25) nm emission wavelengths was measured on an EnVision (Perkin Elmer) plate reader. […]
Records with an inconclusive call do not appear. Calls of active or inactive are those of the source. The call rests on the fitted dose curve; in most records, active means well fitted inhibition curve with a large enough effect; inconclusive means small, poorly fitted or top-dose-only effect; inactive means flat fitted curve, though single readings scatter.
Parameter call: string, one of class 1 (active), class 0 (inactive)

Please indicate how the test categorized `CCCN[C@H]1CCc2nc(N)sc2C1` .
class 0

Check the results log: what was the call for `O=S(=O)(O)CCS` ?
class 0

Assay outcome for `Nc1ccc(S(=O)(=O)Nc2ccccn2)cc1` : what was it?
class 0

Outcome? `S=P(N1CC1)(N1CC1)N1CC1`
class 0

Per the assay record, what outcome was assigned to CC(N)C12CC3CC(CC(C3)C1)C2 (configuration not stated) ?
class 1

Test call, this compound: `C#CCN[C@@H]1CCc2ccccc21`
class 0

How was CNC1CCCN(c2c(F)cc3c(=O)c(C(=O)O)cn(C4CC4)c3c2OC)C1 (configuration not stated) classified in this test?
class 0

====

assay: Primary qHTS for inhibitors of La Crosse Virus (LACV) - induced cell death in SH-SY5Y cells (AID 1508616); settings: SH-SY5Y LACV cytopathicity rescue, ATP luminescence, 6 d; series mostly up to 4.29 µM
Inconclusive results are not listed. Activity calls are given as the source filed them. Calls follow the shape of the dose curve; as a rule, active = well fitted inhibition curve with a large enough effect; inconclusive = small, poorly fitted or top-dose-only effect; inactive = no such curve, though single readings can be large or run the other way.
Select the correct class. Options are y for active, n for inactive and nothing else.

Recorded call for `Cc1cccc(Nc2ccncc2S(=O)(=O)NC(=O)NC(C)C)c1` ?
n

Dear all, I need the recorded test outcome for `O=c1oc2c(O)c(O)cc3c(=O)oc4c(O)c(O)cc1c4c23` , thank you.
n

Returns: the outcome recorded for `CCc1cc(C(N)=S)ccn1` in this assay.
n

Which outcome was assigned to `CNS(=O)(=O)CCc1ccc2[nH]cc(C3CCN(C)CC3)c2c1` in this test?
n

Entry CC1=C(C(=O)O)N2C(=O)[C@@H](NC(=O)C(N)c3ccccc3)[C@H]2SC1 (stereo partly drawn) : call = ?
n

Dear colleague, could you share the recorded outcome for `O=C(O)c1cc(=O)[nH]c(=O)[nH]1` when you have a moment?
n

So what was the verdict on `CC(=O)[C@H]1CC[C@H]2[C@@H]3CCC4=CC(=O)CC[C@]4(C)[C@H]3CC[C@]12C` in this test?
n

Entry `CC(C)C[C@H](NC(=O)[C@H](CCc1ccccc1)NC(=O)CN1CCOCC1)C(=O)N[C@@H](Cc1ccccc1)C(=O)N[C@@H](CC(C)C)C(=O)[C@@]1(C)CO1` : call = ?
y

# lookup: test call for `C#CCN[C@@H]1CCc2ccccc21`
n

Recorded test call requested for CC(C)C1CCC(C(=O)N[C@H](Cc2ccccc2)C(=O)O)CC1 (stereo partly drawn)
n

How did this test come out for `CN1CCN(c2c(F)cc3c(=O)c(C(=O)O)cn4c3c2OCN4C)CC1` ?
n

Recorded test call requested for `COc1nc(N)nc2c1ncn2[C@@H]1O[C@H](CO)[C@@H](O)[C@@H]1O`
n

Can you look up the reported call for C1CCC(C(CC2CCCCN2)C2CCCCC2)CC1 (stereo not drawn) for me?
n

GET /call?item= `CCN(C)C(=O)Oc1cccc([C@H](C)N(C)C)c1` returns the recorded outcome of this test.
n

Record request — test call for `CC(=O)Oc1ccccc1C(=O)Nc1ncc([N+](=O)[O-])s1`
n

Given CCOc1cc(N)c(Cl)cc1C(=O)NCC1CN(Cc2ccc(F)cc2)CCO1 (stereo not drawn) , state the outcome it received in this test.
n

Called result for `O[C@@H](CNC[C@H](O)[C@H]1CCc2cc(F)ccc2O1)[C@@H]1CCc2cc(F)ccc2O1`
n

Per the assay record, what outcome was assigned to `CN1CCN(c2c(F)cc3c(=O)c(C(=O)O)cn(CCF)c3c2F)CC1` ?
n

====

assay: Quantitative High-Throughput drug screen in 47 multiple myeloma cell lines against the NCATS MIPE library collection: U266_ATCC cell viability assay (AID 1919864); settings: U266 myeloma viability, CellTiter-Glo ATP luminescence, 48 h; series mostly up to 45.8 µM; further: nearly all actives have a fitted effect of over 35% in size
Inconclusive results are not listed. Calls of active or inactive are those of the source. Calls follow the shape of the dose curve; as a rule, active = well fitted cell-killing curve with a large enough effect; inconclusive = small, poorly fitted or top-dose-only effect, or effect the other way; inactive = no such curve, though single readings can be large or run the other way.
Answer with one of the outcomes active, inactive

Just curious, what result did `CN(C)CCc1c[nH]c2ccc(CS(=O)(=O)N3CCCC3)cc12` get here?
inactive

For this molecule, state the assay outcome: `CCOC(=O)[C@H](CCc1ccccc1)N[C@H]1CCc2ccccc2N(CC(=O)O)C1=O`
active

Recorded test outcome, item CN(CCOc1ccc(CC2SC(=O)NC2=O)cc1)c1ccccn1 (stereo not drawn)
active

Check the results log: what was the call for `Nc1nc(F)nc2c1ncn2[C@@H]1O[C@H](CO)[C@@H](O)[C@@H]1O` ?
active

What was the test verdict on `CCN(CC)CCn1c(=O)c(Cc2ccc(OC)cc2)nc2ccccc21` ?
inactive

Could you kindly confirm the outcome this assay logged for `NC1(c2ccc(-c3nc4ccn5c(=O)[nH]nc5c4cc3-c3ccccc3)cc2)CCC1` ?
active

Per the records of this test, what outcome belongs to `CC(C)(Sc1cc(C(C)(C)C)c(O)c(C(C)(C)C)c1)Sc1cc(C(C)(C)C)c(O)c(C(C)(C)C)c1` ?
active

For this molecule, state the assay outcome: `COc1cccc(N(C)C(=S)Oc2ccc3c(c2)CCCC3)n1`
inactive

Tell me the assay call for `NC(=O)c1ccc2[nH]ccc2c1` please.
inactive

How was `COC(=O)Nc1nc2ccc(C(=O)c3ccccc3)cc2[nH]1` classified in this test?
active

Lab log entry: `O=c1oc2c(O)c(O)cc3c(=O)oc4c(O)c(O)cc1c4c23` — outcome as called in the assay?
inactive

Hi, do you know how `Cc1cc(NS(=O)(=O)c2ccc(N)cc2)no1` came out in this test?
active

Field: outcome | Entry: `Cc1nnc(C(=O)NC(C)(C)c2nc(C(=O)NCc3ccc(F)cc3)c(O)c(=O)n2C)o1`
inactive

Tell me the assay call for `Cc1cccc(Nc2ccncc2S(=O)(=O)NC(=O)NC(C)C)c1` please.
inactive

# lookup: test call for `COc1cc(NS(=O)(=O)c2ccc(N)cc2)nc(OC)n1`
inactive

Dear colleague, could you share the recorded outcome for `Nc1nc(=S)c2[nH]cnc2[nH]1` when you have a moment?
active

Check the results log: what was the call for `Cc1nnc(NS(=O)(=O)c2ccc(N)cc2)s1` ?
active

Just curious, what result did `COc1ncnc(NS(=O)(=O)c2ccc(N)cc2)c1OC` get here?
inactive

Which outcome was entered for the molecule `NC(=O)c1cccnc1` in this test?
inactive

Outcome logged for O=C(NCC1CN(c2ccc(N3CCOCC3=O)cc2)C(=O)O1)c1ccc(Cl)s1 (stereo not drawn) in this assay:
inactive

Hi team, can someone confirm the assay call for `O=S(=O)(c1cccc2cnccc12)N1CCCNCC1` ?
inactive

Name the outcome recorded for `COc1cc2ncnc(Nc3cccc(Cl)c3)c2cc1OC` in the assay.
active

Answer briefly: the call reported for `C[C@@H]1C[C@H]2[C@@H]3CCC4=CC(=O)C=C[C@]4(C)[C@@]3(Cl)[C@@H](O)C[C@]2(C)[C@@]1(OC(=O)c1ccco1)C(=O)CCl` in this assay.
active

====

assay: qHTS for differential inhibitors of proliferation of Plasmodium falciparum line 3D7 (AID 1876); conditions: P. falciparum 3D7 proliferation inhibition; series mostly up to 28.7 µM
Inconclusive results are not listed. The source made the active and inactive calls. The call rests on the fitted dose curve; in most records, active means well fitted curve in the direction sought with a large enough effect; inconclusive means small, poorly fitted or top-dose-only effect, or another doubt; inactive means no such curve, though single readings can be large or run the other way.
// classify into active, inactive

// outcome(item) with item = `COc1cc2ncnc(Nc3cccc(Cl)c3)c2cc1OC`
active

In this assay, the call recorded for CCN(CC)CC#CCOC(=O)C(O)(c1ccccc1)C1CCCCC1 (centres undefined) was what?
active

Tell me the recorded outcome of this test for CC(C)NCC(O)c1ccc(NS(C)(=O)=O)cc1 (centres undefined) .
inactive

Tell me the assay call for CC1=C(C(=O)O)N2C(=O)[C@@H](NC(=O)C(N)c3ccccc3)[C@H]2SC1 (some centres undefined) please.
inactive

====

Can you tell me activity, negative = inhibition for the items I'm about to list?
target: Lysine-specific demethylase 5B (Homo sapiens) (UniProt Q9UGL1); assay: Optimization screen for KDM5B Histone Demethylases FDH coupled qHTS against the LOPAC library (AID 1347166); details: KDM5B demethylation, FDH-coupled NADH fluorescence (FDH is formaldehyde dehydrogenase); at 57.5 µM (top of the series); further: 0% is about no effect
Sequence (Q9UGL1 whole entry, looked up): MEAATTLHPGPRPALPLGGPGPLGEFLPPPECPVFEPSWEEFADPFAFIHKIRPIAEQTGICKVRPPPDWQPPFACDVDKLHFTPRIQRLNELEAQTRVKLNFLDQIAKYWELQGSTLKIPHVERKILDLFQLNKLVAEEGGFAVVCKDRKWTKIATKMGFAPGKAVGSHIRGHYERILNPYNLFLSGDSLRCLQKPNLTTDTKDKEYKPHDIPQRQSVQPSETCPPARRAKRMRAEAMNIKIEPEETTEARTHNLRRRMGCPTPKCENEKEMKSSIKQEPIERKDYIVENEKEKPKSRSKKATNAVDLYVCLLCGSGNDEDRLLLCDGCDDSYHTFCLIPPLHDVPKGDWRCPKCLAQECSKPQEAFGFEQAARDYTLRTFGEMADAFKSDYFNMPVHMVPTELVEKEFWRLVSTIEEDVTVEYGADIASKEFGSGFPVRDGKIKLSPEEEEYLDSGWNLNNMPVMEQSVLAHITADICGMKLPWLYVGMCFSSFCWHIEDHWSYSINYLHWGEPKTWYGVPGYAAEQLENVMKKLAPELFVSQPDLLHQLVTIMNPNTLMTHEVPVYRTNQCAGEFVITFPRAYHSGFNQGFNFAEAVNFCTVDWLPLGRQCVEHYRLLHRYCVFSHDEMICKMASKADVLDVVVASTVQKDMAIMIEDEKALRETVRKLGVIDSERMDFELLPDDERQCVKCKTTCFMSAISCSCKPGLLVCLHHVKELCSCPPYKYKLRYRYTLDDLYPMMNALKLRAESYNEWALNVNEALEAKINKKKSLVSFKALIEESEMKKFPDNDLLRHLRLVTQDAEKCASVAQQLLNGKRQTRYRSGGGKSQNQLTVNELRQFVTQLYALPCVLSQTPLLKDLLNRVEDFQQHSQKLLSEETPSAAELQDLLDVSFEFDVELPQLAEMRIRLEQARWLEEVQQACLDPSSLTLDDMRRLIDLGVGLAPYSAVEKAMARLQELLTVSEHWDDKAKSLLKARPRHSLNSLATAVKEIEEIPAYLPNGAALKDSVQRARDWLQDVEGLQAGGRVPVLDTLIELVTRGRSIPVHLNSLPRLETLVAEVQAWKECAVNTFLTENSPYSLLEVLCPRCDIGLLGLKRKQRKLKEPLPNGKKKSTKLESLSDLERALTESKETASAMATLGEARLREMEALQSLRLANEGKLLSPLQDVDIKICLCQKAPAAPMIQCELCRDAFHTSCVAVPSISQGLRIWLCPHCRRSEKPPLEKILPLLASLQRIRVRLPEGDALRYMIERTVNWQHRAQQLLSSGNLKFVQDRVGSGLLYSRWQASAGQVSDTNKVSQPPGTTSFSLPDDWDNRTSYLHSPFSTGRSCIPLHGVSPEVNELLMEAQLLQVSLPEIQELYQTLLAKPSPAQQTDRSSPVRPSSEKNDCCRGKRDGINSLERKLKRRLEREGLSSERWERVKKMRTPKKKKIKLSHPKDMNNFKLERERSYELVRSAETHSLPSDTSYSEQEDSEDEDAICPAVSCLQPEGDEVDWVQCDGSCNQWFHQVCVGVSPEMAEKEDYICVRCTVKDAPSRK
Records with an inconclusive call do not appear.
Numeric answer only, unit % assumed.

Consider the molecule `CC(=O)[C@H]1CC[C@H]2[C@@H]3CCC4=CC(=O)CC[C@]4(C)[C@H]3CC[C@]12C` . State its measured activity, negative = inhibition.
-4.17

Check the records and state activity, negative = inhibition for CCN1CCCC1CNC(=O)c1cc(S(N)(=O)=O)ccc1OC (stereo not given)
2.22

Hello, please tell me recorded activity, negative = inhibition for this one: Nc1nc(N)c2nc(CNc3ccc(C(=O)NC(CCC(=O)O)C(=O)O)cc3)cnc2n1 (stereo not given)
-994

Tell me measured activity, negative = inhibition for CCCCS(=N)(=O)CCC(N)C(=O)O (stereo not given) please.
-3.95

Look up activity, negative = inhibition of CC(C)NCC(O)c1ccc(NS(C)(=O)=O)cc1 (stereo not given) and report it.
-4.54
